Target: leptin receptor (Homo sapiens, UniProt P48357)
Construct: purchased R&D Systems
Sequence (P48357 22-1165): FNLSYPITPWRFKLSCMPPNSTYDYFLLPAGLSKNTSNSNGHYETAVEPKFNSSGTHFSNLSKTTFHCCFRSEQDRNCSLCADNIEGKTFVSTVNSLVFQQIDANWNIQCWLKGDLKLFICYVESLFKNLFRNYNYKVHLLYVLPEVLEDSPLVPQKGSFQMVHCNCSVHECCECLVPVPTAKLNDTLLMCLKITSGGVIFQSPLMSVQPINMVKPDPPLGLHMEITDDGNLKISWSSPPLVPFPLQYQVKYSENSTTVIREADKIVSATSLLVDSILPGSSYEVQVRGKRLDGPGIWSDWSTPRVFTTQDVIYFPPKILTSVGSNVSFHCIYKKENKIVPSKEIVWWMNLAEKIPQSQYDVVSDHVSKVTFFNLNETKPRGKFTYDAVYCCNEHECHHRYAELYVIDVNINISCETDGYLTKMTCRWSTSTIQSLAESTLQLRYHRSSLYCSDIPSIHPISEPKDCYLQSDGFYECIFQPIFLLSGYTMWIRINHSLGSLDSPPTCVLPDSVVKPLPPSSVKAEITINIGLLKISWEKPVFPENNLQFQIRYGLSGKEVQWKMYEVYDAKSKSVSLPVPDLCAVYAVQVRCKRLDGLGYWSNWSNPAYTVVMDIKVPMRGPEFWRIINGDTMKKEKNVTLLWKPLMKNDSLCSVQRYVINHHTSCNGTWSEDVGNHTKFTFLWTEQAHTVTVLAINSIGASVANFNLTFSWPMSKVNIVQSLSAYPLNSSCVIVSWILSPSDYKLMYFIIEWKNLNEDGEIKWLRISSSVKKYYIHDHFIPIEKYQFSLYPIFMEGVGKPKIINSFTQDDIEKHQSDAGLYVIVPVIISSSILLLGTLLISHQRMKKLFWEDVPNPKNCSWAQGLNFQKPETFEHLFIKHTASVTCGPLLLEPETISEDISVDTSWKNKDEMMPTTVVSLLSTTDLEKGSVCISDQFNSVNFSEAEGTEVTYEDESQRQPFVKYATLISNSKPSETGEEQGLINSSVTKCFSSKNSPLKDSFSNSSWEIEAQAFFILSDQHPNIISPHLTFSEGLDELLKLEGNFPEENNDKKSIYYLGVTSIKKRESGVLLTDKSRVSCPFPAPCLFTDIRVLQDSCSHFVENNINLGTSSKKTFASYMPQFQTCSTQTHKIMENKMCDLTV
Test: SPR biosensor binding of peptide to immobilized leptin receptor
Conditions: SPR, leptin receptor immobilized, PBS with 1% DMSO, global fit; read-out: binding affinity (KD) (Kd/Ka)
Ends that are not written are not given here.
Measured Endpoint: Kd

Short answer please: Kd, leptin receptor (Homo sapiens, UniProt P48357), entry YQQVLTSLPSQNVLQIANDLENLRDLLHLLGGGGRRRRRRRRRLLLC [Lep9R3LC] 1380 nM
